Target: T1, glycoprotein of rabies virus strain CVS-11 (rabies virus strain CVS-11, UniProt O92284 20-524)
T1 sequence: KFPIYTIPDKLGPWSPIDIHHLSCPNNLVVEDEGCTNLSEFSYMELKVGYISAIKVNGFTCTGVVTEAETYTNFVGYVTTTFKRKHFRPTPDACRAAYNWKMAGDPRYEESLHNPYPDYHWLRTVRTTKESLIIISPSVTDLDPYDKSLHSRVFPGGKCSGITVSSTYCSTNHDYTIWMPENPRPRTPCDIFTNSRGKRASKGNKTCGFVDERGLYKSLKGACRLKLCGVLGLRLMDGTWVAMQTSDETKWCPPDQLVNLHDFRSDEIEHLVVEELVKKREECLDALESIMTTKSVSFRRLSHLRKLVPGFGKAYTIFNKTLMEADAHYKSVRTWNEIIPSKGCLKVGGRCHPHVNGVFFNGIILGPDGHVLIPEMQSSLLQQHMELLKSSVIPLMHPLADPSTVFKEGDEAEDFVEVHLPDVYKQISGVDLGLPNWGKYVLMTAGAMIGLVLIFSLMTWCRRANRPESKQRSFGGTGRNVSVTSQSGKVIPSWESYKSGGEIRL
Assay: cell-based or functional assay
readout_kind: Potency (IU/ml)
Your answer is read as IU/ml, so omit the unit and give the number.

Here are 2 binders together with their reported answers.
INSERT INTO assay_data (binder, u, reported_measurement) VALUES
  ('SC04-001 (scFv) scFv: AMAEVQLVESGGGVVRPGGSLRLSCAASGFTFDDYGMSWVRQAPGKGLEWVSGINWNGGSTGYADSVKGRFTISRDNAKNSLYLQMNSLRAEDTAVYYCAKGLYGELFDYWGQGTLVTVSRGGGGSGGGGSGGGGSSELTQDPAVSVALGQTVRITCQGDSLRSYYASWYQQKPGQAPVLVIYGKNNRPSGIPDRFSGSSSGNTASLTITGAQAEDEADYYCNSRDSSGNHVVFGGGTKLTVLGAAA', 'IU/ml', 1.3),
  ('SC04-073 (scFv) scFv: AMAQVQLVQSGGGVAQPGRSLRLSCAASGFTFSSYGMHWVRQAPGKGLEWVADISYDGSNKYYADSVKGRFTISRDNSKNTLYLQMNSLRAEDTAVYYCAKDGLDLTGTIQPFGYWGQGTLVTVSSGTGGSGGTGSGTGGSTDIQLTQSPSFLSASVGDRVTITCRASHSISSWLAWYQQKPGKAPKLLIYKASSLESGVPSRFSGSGSGTDFTLTISSLQPEDFATYYCLQDYNYPRTFGQGTKLEIKRAAA', 'IU/ml', 3);

For the next question, use this binder.
// SC04-060 (scFv) scFv: AMAQVQLVESGPGLVKASETLSLTCTVSDGSISSFYWSWIRQPPGKGLEWVGEIQDTGRTNYNPSLKSRVTISLDTSKNQFSLTLSSVTAADTAVYYCAREKEKYSDRSGYSYYYYYMDVWGKGTTVTVSSGTGGSGGTGSGTGGSTDIQMTQSPSSLSASVGDRVTITCRASQGISTYLNWYQQKPGKAPNLLIYGASNLQSGVPSRFSGSESGTDFTLTISSLQPEDFATYYCQQSFTTPRTFGQGTKLEIKRAAA : Potency (IU/ml) value = 0.2
